Would you mind telling me the reported TGI of each entry?
system: SF-295 CNS; test: NCI tumour cell line growth inhibition, 48 h

Quick batch: TGI for everything below.
1. Brc1ccc2[nH]c3c(C4=NCCC4)nccc3c2c1
2. NC(=NCCCCCCN=C(N)/N=C(\N)Nc1ccc(Cl)cc1)/N=C(\N)Nc1ccc(Cl)cc1
3. CCCOC(=O)c1cc(O)c(O)c(O)c1
4. COc1cccc(C2CC(=O)Nc3c2c(C)nn3-c2nc3ccccc3[nH]2)c1OC (stereo unspecified)
5. CCCCCCCCCCCC/C=C\CC[C@@H](O)[C@H](O)CC[C@H](O)[C@@H]1CC[C@@H](CCCCCCCC2=C[C@H](C)OC2=O)O1
6. O=C(/C=C/c1ccc(O)c(O)c1)N1CCN(c2ccc(Cl)cc2)CC1
7. COc1ccc(-c2nc3ccccc3c(=O)[nH]2)cc1

A:
1: > 36.7 µM; 2: 2.35 µM; 3: > 100 µM; 4: 3.78 µM; 5: 15.5 µM; 6: > 100 µM; 7: > 100 µM

###

Would you mind telling me the reported TGI of each entry?
system: OVCAR-4 ovarian; experiment: NCI tumour cell line growth inhibition, 48 h

// solved cases for TGI follow
CCOC(=O)C1=C(O)CC(=O)N=C1N1CCCC1
> 100 µM
Cc1nn2c(=O)c([N+](=O)[O-])c(/C=C/c3ccc(F)cc3)nc2s1
19.5 µM
COc1ccc2nc3ccccc3c(NCCNCCO)c2c1
3.26 µM

Quick batch: TGI for everything below.
1. COc1cc2ncn(-c3cc(OCc4ccccc4C(F)(F)F)c(C(N)=O)s3)c2cc1OC
2. Cc1nc2c(C)ccc([N+](=O)[O-])c2c(NCCCN(C)C)c1C
3. ClC1=NSSC1(Cl)Cl
4. CC1(C)N=C(C(N)=O)c2[nH]cnc2N1

A:
1: > 25 µM; 2: > 100 µM; 3: > 100 µM; 4: > 100 µM

Quick batch: TGI for everything below.
1. O=c1[nH]c2cc(Cl)ccc2nc1/C(=N\Nc1ccccc1)C(O)c1ccc2c(c1)OCO2 (configuration not stated)
2. CCCC1C[C@H]2CCCCN2[C@H]2CCCN12 (some centres not stated)
3. Nc1nc(Cl)c(CO)c(NCC2(CO)CCC2)n1
4. Cc1cc(N2CCC(N3CCCC3)CC2)nc(/N=C(\N)Nc2ccc(Cl)c(Cl)c2)n1
5. NC1=Nc2cc(C(F)(F)F)ccc2Sc2nc3ccccc3n21

A:
1: > 100 µM; 2: > 100 µM; 3: > 100 µM; 4: 3.99 µM; 5: > 100 µM

###

test system: U251 CNS; assay: NCI tumour cell line growth inhibition, 48 h
ENDPOINT: TGI (µM)
One number for each entry, in µM.

// solved cases for TGI follow
Cc1ccc(C2=CC(=O)/C(=C\C(=O)c3ccc(Br)cc3)O2)c(C)c1
43.9
CC(=O)c1csc2c1C(=O)c1ccccc1C2=O
13.9

Q: Identify measured TGI corresponding to Nc1nc(SCc2ccccc2CCl)c2[nH]cnc2n1
A: 27.3

###

Would you mind telling me the reported TGI of each entry?
system: HCT-116 colon; assay: NCI tumour cell line growth inhibition, 48 h
Answers are plain numbers, in µM.

// solved cases for TGI follow
CN1CCCCC1CCN1c2ccccc2Sc2ccc(Br)cc21 (stereo unspecified)
3.67
COc1cc(-c2nc(-c3ccccc3)c(-c3ccccc3)[nH]2)cc(OC)c1O
27.7
Cc1nn2c(=O)c([N+](=O)[O-])c(/C=C/c3ccc(F)cc3)nc2s1
15.1

Quick batch: TGI for everything below.
1. Fc1ccccc1CN1COc2c(cc(Cl)c3cccnc23)C1
2. CCN(CC)c1c(C(C)(C)C)c(=O)n2ccsc2c1OC(C)=O
3. [Br][Pb]([c]1ccccc1)([c]1ccccc1)[c]1ccccc1

A:
[13.2, 26.5, 0.352]
